molecular target: NBTI-specific adenosine transport site (Homo sapiens, UniProt Q99808); construct: incubated for 30 minutes with 0.5 mg neuronal membrane protein together with 0.5 nM [^3H]-NBTI; assay: [3H]-NBTI binding assay; settings: 50% displacement of bound [3H]-NBTI (0.5 nM); neuronal membrane protein, 30 minutes, pH 7.4, room temperature; read-out: ED50 (the source's name)
Sequence (Q99808 whole entry): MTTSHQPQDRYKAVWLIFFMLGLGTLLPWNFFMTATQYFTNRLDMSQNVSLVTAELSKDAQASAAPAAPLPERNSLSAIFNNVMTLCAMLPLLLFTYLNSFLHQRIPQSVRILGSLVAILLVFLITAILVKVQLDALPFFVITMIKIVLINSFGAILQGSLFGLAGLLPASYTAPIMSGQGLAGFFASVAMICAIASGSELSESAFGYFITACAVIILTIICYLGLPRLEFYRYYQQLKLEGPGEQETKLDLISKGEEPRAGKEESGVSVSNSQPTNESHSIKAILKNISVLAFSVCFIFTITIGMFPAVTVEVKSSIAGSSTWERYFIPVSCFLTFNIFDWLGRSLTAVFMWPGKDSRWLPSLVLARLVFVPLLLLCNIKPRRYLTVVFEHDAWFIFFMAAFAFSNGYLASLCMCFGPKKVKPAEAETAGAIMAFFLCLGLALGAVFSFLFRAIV
pEC50: −log10 of the molar value.
Kindly return YES if reported pEC50 is no lower than 4; return NO if it is lower.

Please review the following examples before continuing.
Nc1c(C(=O)NCc2ccc([N+](=O)[O-])cc2)ncn1[C@@H]1O[C@H](CI)[C@@H](O)[C@H]1O	YES
Nc1c(C(=O)NCc2ccc(Cl)cc2Cl)ncn1[C@@H]1O[C@H](CO)[C@@H](O)[C@H]1O	YES
CSC[C@H]1O[C@@H](n2cnc(C(N)=O)c2N)[C@H](O)[C@@H]1O	YES

Q: hey, is pEC50 for this one >= 4? `C[C@H]1O[C@@H](n2cnc(C(=O)NCc3ccc(Cl)cc3)c2N)[C@H](O)[C@@H]1O`
A: YES

Q: Please check the record `Nc1c(C(=O)N2CCc3ccccc32)ncn1[C@@H]1O[C@H](CO)[C@@H](O)[C@H]1O` and state if its pEC50 is at or above 4.
A: YES

Q: Dear colleague, could you confirm whether `NC(=O)c1nc(S)n([C@@H]2O[C@H](CO)[C@@H](O)[C@H]2O)c1N` has pEC50 at or above 4?
A: NO

Q: Dear colleague, could you confirm whether `Nc1c(C(=O)NCc2cccc([N+](=O)[O-])c2)ncn1[C@@H]1O[C@H](CO)[C@@H](O)[C@H]1O` has pEC50 at or above 4?
A: YES

Q: Does the reported pEC50 for `Nc1c(C(=O)N2CCN(c3ccc([N+](=O)[O-])cc3)CC2)ncn1[C@@H]1O[C@H](CO)[C@@H](O)[C@H]1O` fall at or above the 4 mark?
A: YES

Q: Assess whether reported pEC50 for `COc1ccc(CNC(=O)c2ncn([C@@H]3O[C@H](CO)[C@@H](O)[C@H]3O)c2N)cc1` sits at 4 or higher.
A: NO

Q: Quick check: does `C[C@@H](NC(=O)c1ncn([C@@H]2O[C@H](CO)[C@@H](O)[C@H]2O)c1N)c1ccc([N+](=O)[O-])cc1` have pEC50 greater than or equal to 4?
A: YES

Q: Can NC(=O)c1ncn([C@@H]2O[C@H](CO)[C@@H](O)[C@H]2O)c1N [Compound No. 1, reference compound] be said to have pEC50 at or above 4?
A: NO

Q: Given the entry `Nc1c(C(=O)SCc2ccc([N+](=O)[O-])cc2)ncn1[C@@H]1O[C@H](CO)[C@@H](O)[C@H]1O` , answer whether its pEC50 meets or surpasses 4.
A: YES

Q: Please indicate if the recorded pEC50 for `Nc1c(C(=O)Nc2ccc(Br)cc2)ncn1[C@@H]1O[C@H](CO)[C@@H](O)[C@H]1O` meets or exceeds 4.
A: YES

Q: Has `Nc1c(C(=O)NCCc2ccc([N+](=O)[O-])cc2)ncn1[C@@H]1O[C@H](CO)[C@@H](O)[C@H]1O` a recorded pEC50 greater than or equal to 4?
A: YES

Q: Reported pEC50 at or above 4? `Nc1c(C(=O)NCc2ccccc2Cl)ncn1[C@@H]1O[C@H](CO)[C@@H](O)[C@H]1O`
A: NO

Q: Decide: pEC50 of `C[C@H](NC(=O)c1ncn([C@@H]2O[C@H](CO)[C@@H](O)[C@H]2O)c1N)c1ccc([N+](=O)[O-])cc1` >= 4?
A: YES
